molecular target: Escherichia coli SC (^EcSC) (Escherichia coli); construct: His tag (inferred from the pET15b vector and Ni-NTA purification) (N); made in house; host or cells: E. coli; experiment: biochemical; type: binding; conditions: read-out: kon (M^-1.s^-1)
Numbered stars: 1 amine (or outer) side, 2 acyl side, 3 side chain; on linkers, the order of the positions; unused ones are H or OH. Square brackets hold non-standard residues; d marks the D form. Peptide text beside a SMILES is read from it. X2 = O=C(CN(Cc1ccccn1)[*:1])[*:2]; NMeF = CN[C@@H](Cc1ccccc1)C(=O)O; NFurfurylGly = O=C(O)CNCc1ccco1; Cha = N[C@@H](CC1CCCCC1)C(=O)O
# binning rule on kon: Low (below 20000 M⁻¹ s⁻¹), Medium (20000 M⁻¹ s⁻¹ to below 50000 M⁻¹ s⁻¹), High (50000 M⁻¹ s⁻¹ or more)

Ask | Returns: class label. Input: CC(C)C[C@H](NC(=O)[C@H](CC(=O)O)NC(=O)[C@H](CC1CCCCC1)NC(=O)[C@H](CCC(N)=O)NC(=O)CNCc1ccco1)C(=O)N[C@@H](Cc1ccccc1)C(=O)O [P9] (H-[NFurfurylGly]Q[Cha]DLF-OH)
Reply | Medium

Ask | Exercise: read the entry CC(=O)N[C@@H](CCC(N)=O)C(=O)N[C@@H](CC1CCCCC1)C(=O)N[C@@H](CC(=O)O)C(=O)N[C@@H](CC(C)C)C(=O)N(C)[C@@H](Cc1ccccc1)C(=O)O [P7] (Ac-Q[Cha]DL[NMeF]-OH) and state which class it falls under.
Reply | Low

Ask | Which of the defined bands does the recorded kon of CC(C)C[C@H](NC(=O)[C@H](CC(=O)O)NC(=O)[C@H](CC1CCCCC1)NC(=O)[C@H](CCC(N)=O)NC(=O)CNCc1ccccn1)C(=O)N[C@@H](Cc1ccccc1)C(=O)O [P8] (H-[X2]Q[Cha]DLF-OH) sit within?
Reply | Medium

====

biological target: Escherichia coli SC (^EcSC) (Escherichia coli, UniProt P0A988); construct: His tag (inferred from the pET15b vector and Ni-NTA purification) (N); made in house; host or cells: E. coli; experiment: biochemical; format: binding; conditions: ITC at 298.15 K (25° C.)
Sequence (P0A988 whole entry): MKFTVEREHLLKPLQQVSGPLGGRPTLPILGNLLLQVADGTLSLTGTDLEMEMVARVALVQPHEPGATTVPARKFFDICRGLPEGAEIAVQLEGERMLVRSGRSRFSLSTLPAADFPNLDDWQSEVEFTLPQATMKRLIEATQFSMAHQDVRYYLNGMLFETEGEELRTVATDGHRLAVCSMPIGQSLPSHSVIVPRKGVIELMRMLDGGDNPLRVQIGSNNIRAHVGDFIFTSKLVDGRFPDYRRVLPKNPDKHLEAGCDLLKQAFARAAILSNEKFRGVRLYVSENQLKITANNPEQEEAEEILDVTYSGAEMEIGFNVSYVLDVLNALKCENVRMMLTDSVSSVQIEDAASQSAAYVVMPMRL
Square brackets hold non-standard residues; d marks the D form. Peptide text beside a SMILES is read from it. * marks the point of attachment. NMeCha = CN[C@@H](CC1CCCCC1)C(=O)O; X7 = C[N+](C)=C(NCC(=O)*)N1CCOCC1; X4 = O=C([O-])[C@H](Cc1ccccc1)N*; NFurfurylGly = O=C(O)CNCc1ccco1; Cha = N[C@@H](CC1CCCCC1)C(=O)O; X3 = CN(C)C(NCC(=O)*)=[N+](C)C; NMeL = CN[C@@H](CC(C)C)C(=O)O; Phe(ol) = N[C@H](CO)Cc1ccccc1; Pip = O=C(O)[C@@H]1CCCCN1
quantity.name: ΔG (kcal/mol)

Completed entries (count: 6):
compound="CC(C)C[C@H](NC(=O)[C@H](CC(=O)O)NC(=O)[C@H](CC1CCCCC1)NC(=O)[C@H](CCC(N)=O)NC(=O)CNC(N(C)C)=[N+](C)C)C(=O)N[C@@H](Cc1ccccc1)C(=O)[O-] [P15] (X3-Q[Cha]DL-X4)" readout_value="-8.7 (± 0.1) kcal/mol"
compound="CC(=O)N[C@@H](CCC(N)=O)C(=O)N[C@@H](CC1CCCCC1)C(=O)N[C@@H](CC(=O)O)C(=O)N[C@@H](CC(C)C)C(=O)N1CCC[C@H]1C(=O)N[C@@H](CC(C)C)C(=O)O [P32] (Ac-Q[Cha]DLPL-OH)" readout_value="-9.2 (± 0.2) kcal/mol"
compound="CC(C)C[C@H](NC(=O)[C@H](CC(=O)O)NC(=O)[C@H](CC1CCCCC1)NC(=O)[C@H](CCC(N)=O)NC(=O)CNC(N1CCOCC1)=[N+](C)C)C(=O)N[C@@H](Cc1ccccc1)C(=O)[O-] [P14] (X7-Q[Cha]DL-X4)" readout_value="-9.0 (± 0.1) kcal/mol"
compound="CC(=O)N[C@@H](CCC(N)=O)C(=O)N[C@@H](CC1CCCCC1)C(=O)N[C@@H](CC(=O)O)C(=O)N[C@@H](CC(C)C)C(=O)N1CCCC[C@H]1C(=O)N[C@@H](CC(C)C)C(=O)O [P34] (Ac-Q[Cha]DL[Pip]L-OH)" readout_value="-9.0 (± 0.1) kcal/mol"
compound="CC(=O)N[C@@H](CCC(N)=O)C(=O)N[C@@H](CC1CCCCC1)C(=O)N[C@@H](CC(=O)O)C(=O)N[C@@H](CC(C)C)C(=O)N[C@H](CO)Cc1ccccc1 [P24] (Ac-Q[Cha]DL[Phe(ol)])" readout_value="-8.4 (± 0.1) kcal/mol"
compound="CC(=O)N[C@@H](CCC(N)=O)C(=O)N[C@@H](CC1CCCCC1)C(=O)N[C@@H](CC(=O)O)C(=O)N(C)[C@@H](CC(C)C)C(=O)N[C@@H](Cc1ccccc1)C(=O)O [P6] (Ac-Q[Cha]D[NMeL]F-OH)" readout_value="-5.2 (± 0.2) kcal/mol"

Ask | Supply recorded ΔG (kcal/mol) for CC(C)C[C@H](NC(=O)[C@H](CC(=O)O)NC(=O)[C@H](CC1CCCCC1)NC(=O)[C@H](CCC(N)=O)NC(=O)CNCc1ccco1)C(=O)N[C@@H](Cc1ccccc1)C(=O)O [P9] (H-[NFurfurylGly]Q[Cha]DLF-OH) here.
Reply | -9.2 (± 0.1) kcal/mol

Ask | Using the record for CC(=O)N[C@@H](CCC(N)=O)C(=O)N(C)[C@@H](CC1CCCCC1)C(=O)N[C@@H](CC(=O)O)C(=O)N[C@@H](CC(C)C)C(=O)N[C@@H](Cc1ccccc1)C(=O)O [P3] (Ac-Q[NMeCha]DLF-OH) , state its measured ΔG (kcal/mol).
Reply | -6.0 (± 0.1) kcal/mol

Ask | State its ΔG (kcal/mol) for this compound: CC(=O)N[C@@H](CCCNC(=N)N)C(=O)N[C@@H](CCC(N)=O)C(=O)N[C@@H](CC1CCCCC1)C(=O)N[C@@H](CC(=O)O)C(=O)N[C@@H](CC(C)C)C(=O)N[C@@H](Cc1ccccc1)C(=O)O [P12] (Ac-RQ[Cha]DLF-OH)
Reply | -8.60 (± 0.08) kcal/mol

====

biological target: Escherichia coli SC (^EcSC) (Escherichia coli, UniProt P0A988); construct: His tag (inferred from the pET15b vector and Ni-NTA purification) (N); made in house; host or cells: E. coli; assay: biochemical; type: binding; conditions: ITC at 25° C.
Square brackets hold non-standard residues; d marks the D form. Peptide text beside a SMILES is read from it. * marks the point of attachment. Acryloyl(3-(3-pyridyl),E) = O=C(/C=C/c1cccnc1)*; Phe(3,4-F2) = N[C@@H](Cc1ccc(F)c(F)c1)C(=O)O; Oic = O=C(O)[C@@H]1C[C@@H]2CCCC[C@@H]2N1; Cha = N[C@@H](CC1CCCCC1)C(=O)O; NMeD = CN[C@@H](CC(=O)O)C(=O)O
quantity.name: ΔG (kcal mol^-1)

Some solved entries appear below for comparison.
compound="CC(C)C[C@H](NC(=O)[C@@H]1CCCN1C(=O)[C@H](CC(C)C)NC(=O)[C@H](CC(=O)O)N(C)C(=O)[C@H](CC1CCCCC1)NC(=O)[C@H](CCC(N)=O)NC(=O)/C=C/c1cccnc1)C(=O)O [P44] ({Acryloyl(3-(3-pyridyl),E)}-Q[Cha][NMeD]LPL-OH)" quantity_name="ΔG (kcal mol^-1)" readout_value="-9.2 (± 0.1) kcal mol^-1"
compound="CC(=O)N[C@@H](CCC(N)=O)C(=O)N[C@@H](CC1CCCCC1)C(=O)N(C)[C@@H](CC(=O)O)C(=O)N[C@@H](CC(C)C)C(=O)N1CCC[C@H]1C(=O)N[C@@H](CC(C)C)C(=O)O [P42] (Ac-Q[Cha][NMeD]LPL-OH)" quantity_name="ΔG (kcal mol^-1)" readout_value="-9.0 (± 0.2) kcal mol^-1"
compound="CC(=O)N[C@@H](CCC(N)=O)C(=O)N[C@@H](CC1CCCCC1)C(=O)N(C)[C@@H](CC(=O)O)C(=O)N[C@@H](CC(C)C)C(=O)N1CCC[C@H]1C(=O)N[C@@H](Cc1ccccc1)C(=O)O [P45] (Ac-Q[Cha][NMeD]LPF-OH)" quantity_name="ΔG (kcal mol^-1)" readout_value="-9.7 (± 0.2) kcal mol^-1"
compound="CC(=O)N[C@@H](CCC(N)=O)C(=O)N[C@@H](CC1CCCCC1)C(=O)N[C@@H](CC(=O)O)C(=O)N[C@@H](CC(C)C)C(=O)N1[C@H](C(=O)N[C@@H](Cc2ccccc2)C(=O)O)C[C@@H]2CCCC[C@@H]21 [P48] (Ac-Q[Cha]DL[Oic]F-OH)" quantity_name="ΔG (kcal mol^-1)" readout_value="-9.5 (± 0.3) kcal mol^-1"

Moving on to the next compound.
Ask | Note down ΔG (kcal mol^-1) recorded for CC(=O)N[C@@H](CCC(N)=O)C(=O)N[C@@H](CC1CCCCC1)C(=O)N(C)[C@@H](CC(=O)O)C(=O)N[C@@H](CC(C)C)C(=O)N[C@@H](Cc1ccc(F)c(F)c1)C(=O)O [P40] (Ac-Q[Cha][NMeD]L[Phe(3,4-F2)]-OH)
Reply | -9.3 (± 0.02) kcal mol^-1
